assay: Absorption property of the compound in pH 7.4 PBS buffer assessed as absorption wavelength at 100 uM; type: physicochemical; details: pH 7.4, 100 µM
value.type: Activity

- input.smiles: "O=c1c(O)c(-c2ccccc2)oc2cc3c(S(=O)(=O)[O-])cccc3cc12.[Na+]"
  value.type: "Activity"
  value.measured: "450 to 500 nm"

----------
test: Absorption property of the compound in water assessed as absorption wavelength at 100 uM; type: physicochemical; conditions: buffer

- input.smiles: "O=c1c(O)c(-c2ccccc2)oc2cc3c(S(=O)(=O)[O-])cccc3cc12.[Na+]"
  Activity: "450 to 500 nm"
